molecular target: gp41 hydrophobic pocket (FeII(env2.0)3) (Human immunodeficiency virus type 1 group M subtype B); assay: Fluorescence intensity binding affinity assay, displacement of C18FL from FeII; set-up: species or system HIV-1; settings: ester vs acid
Sequence (P04578 565-584): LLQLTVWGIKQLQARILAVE
Assay Readout: Increase in affinity for the HP of STP ester compared to acid, change in IC50

# query: Increase in affinity for the HP of STP ester compared to acid, change in IC50 of entry `CCOC(=O)c1cc(O)n(-c2ccc(C(=O)Oc3c(F)c(F)c(S(=O)(=O)O)c(F)c3F)cc2)n1`
10 fold

# query: Increase in affinity for the HP of STP ester compared to acid, change in IC50 of entry `Cn1ncc2ccc(-c3ccc4cnn(Cc5ccc(F)c(C(=O)O)c5)c4c3)cc21`
3 fold

# query: Increase in affinity for the HP of STP ester compared to acid, change in IC50 of entry `CCOC(=O)c1cc(O)n(-c2ccc(C(=O)O)cc2)n1`
10 fold

# query: Increase in affinity for the HP of STP ester compared to acid, change in IC50 of entry `Cn1ncc2ccc(-c3ccc4cnn(Cc5ccc(F)c(C(=O)Oc6c(F)c(F)c(S(=O)(=O)O)c(F)c6F)c5)c4c3)cc21`
3 fold
